Target: Cholinesterase (Equus caballus, UniProt P81908)
Sequence (P81908 whole entry): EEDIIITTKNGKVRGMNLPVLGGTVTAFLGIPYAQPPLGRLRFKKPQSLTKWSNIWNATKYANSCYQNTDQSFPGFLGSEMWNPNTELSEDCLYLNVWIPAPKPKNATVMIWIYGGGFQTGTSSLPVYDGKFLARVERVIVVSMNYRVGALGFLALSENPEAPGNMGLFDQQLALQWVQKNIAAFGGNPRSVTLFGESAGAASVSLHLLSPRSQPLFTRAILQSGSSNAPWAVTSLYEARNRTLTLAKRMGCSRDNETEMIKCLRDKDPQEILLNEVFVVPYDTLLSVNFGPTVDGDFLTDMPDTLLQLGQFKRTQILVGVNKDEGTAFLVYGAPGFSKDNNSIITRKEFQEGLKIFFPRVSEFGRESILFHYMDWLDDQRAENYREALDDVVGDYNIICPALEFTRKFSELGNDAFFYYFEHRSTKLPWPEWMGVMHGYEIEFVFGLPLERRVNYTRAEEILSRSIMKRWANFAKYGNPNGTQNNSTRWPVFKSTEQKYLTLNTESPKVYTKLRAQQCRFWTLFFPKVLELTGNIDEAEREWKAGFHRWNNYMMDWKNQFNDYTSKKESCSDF
Assay Method Text: Non-competitive inhibition of equine serum butyrylcholinesterase in presence of varying butyrylthiocholine iodide substrate level preincubated for 20 mins followed by substrate addition measured every 1 min for 30 mins
Give measured pKi for each item. Keep answers brief.
Answers are plain numbers, as −log10 of the molar value.

Some entries whose results are on file:
# Smiles Data, pKi
records = [
    ("N=C(NC(=N)N1CCN(C(=N)NC(=N)Nc2ccccc2Br)CC1)Nc1ccccc1Br", 4.91),
    ("COc1ccc(NC(=N)NC(=N)N2CCN(C(=N)NC(=N)Nc3ccc(OC)cc3)CC2)cc1", 4.45),
    ("N=C(NC(=N)N1CCN(C(=N)NC(=N)Nc2ccc(I)cc2)CC1)Nc1ccc(I)cc1", 5.56),
]

Please look at the items below and tell me pKi for each one, in order.
1. N=C(NC(=N)N1CCN(C(=N)NC(=N)Nc2cccc(I)c2)CC1)Nc1cccc(I)c1
2. N=C(NC(=N)N1CCN(C(=N)NC(=N)Nc2ccccc2F)CC1)Nc1ccccc1F
3. N=C(NC(=N)N1CCN(C(=N)NC(=N)Nc2cccc(Cl)c2)CC1)Nc1cccc(Cl)c1

**Result**
1: 5.52; 2: 4.59; 3: 4.91

Please look at the items below and tell me pKi for each one, in order.
1. COc1cccc(NC(=N)NC(=N)N2CCN(C(=N)NC(=N)Nc3cccc(OC)c3)CC2)c1
2. N=C(NC(=N)N1CCN(C(=N)NC(=N)Nc2ccc([N+](=O)[O-])cc2)CC1)Nc1ccc([N+](=O)[O-])cc1

**Result**
1: 4.26; 2: 4.64

Please look at the items below and tell me pKi for each one, in order.
1. Cc1ccc(NC(=N)NC(=N)N2CCN(C(=N)NC(=N)Nc3ccc(C)cc3)CC2)cc1
2. N=C(NC(=N)N1CCN(C(=N)NC(=N)Nc2cccc(Br)c2)CC1)Nc1cccc(Br)c1
3. N=C(NC(=N)N1CCN(C(=N)NC(=N)Nc2ccc(F)cc2)CC1)Nc1ccc(F)cc1
4. N=C(NC(=N)N1CCN(C(=N)NC(=N)Nc2cccc(F)c2)CC1)Nc1cccc(F)c1
5. COc1ccccc1NC(=N)NC(=N)N1CCN(C(=N)NC(=N)Nc2ccccc2OC)CC1

**Result**
[4.93, 4.99, 4.82, 4.48, 4.47]

Please look at the items below and tell me pKi for each one, in order.
1. N=C(NC(=N)N1CCN(C(=N)NC(=N)Nc2ccc(Br)cc2)CC1)Nc1ccc(Br)cc1
2. N=C(NC(=N)N1CCN(C(=N)NC(=N)Nc2ccc(Cl)cc2Cl)CC1)Nc1ccc(Cl)cc1Cl
3. N=C(NC(=N)N1CCN(C(=N)NC(=N)Nc2ccccc2I)CC1)Nc1ccccc1I
4. CC(C)(C)c1ccc(NC(=N)NC(=N)N2CCN(C(=N)NC(=N)Nc3ccc(C(C)(C)C)cc3)CC2)cc1
5. N=C(NC(=N)N1CCN(C(=N)NC(=N)Nc2ccccc2Cl)CC1)Nc1ccccc1Cl
6. N=C(NC(=N)N1CCN(C(=N)NC(=N)Nc2ccc(Cl)cc2)CC1)Nc1ccc(Cl)cc1

**Result**
1. 5.42
2. 5.12
3. 4.95
4. 5.36
5. 4.90
6. 5.03

----------
Target: Acetylcholinesterase (Electrophorus electricus)
Sequence (O42275 whole entry): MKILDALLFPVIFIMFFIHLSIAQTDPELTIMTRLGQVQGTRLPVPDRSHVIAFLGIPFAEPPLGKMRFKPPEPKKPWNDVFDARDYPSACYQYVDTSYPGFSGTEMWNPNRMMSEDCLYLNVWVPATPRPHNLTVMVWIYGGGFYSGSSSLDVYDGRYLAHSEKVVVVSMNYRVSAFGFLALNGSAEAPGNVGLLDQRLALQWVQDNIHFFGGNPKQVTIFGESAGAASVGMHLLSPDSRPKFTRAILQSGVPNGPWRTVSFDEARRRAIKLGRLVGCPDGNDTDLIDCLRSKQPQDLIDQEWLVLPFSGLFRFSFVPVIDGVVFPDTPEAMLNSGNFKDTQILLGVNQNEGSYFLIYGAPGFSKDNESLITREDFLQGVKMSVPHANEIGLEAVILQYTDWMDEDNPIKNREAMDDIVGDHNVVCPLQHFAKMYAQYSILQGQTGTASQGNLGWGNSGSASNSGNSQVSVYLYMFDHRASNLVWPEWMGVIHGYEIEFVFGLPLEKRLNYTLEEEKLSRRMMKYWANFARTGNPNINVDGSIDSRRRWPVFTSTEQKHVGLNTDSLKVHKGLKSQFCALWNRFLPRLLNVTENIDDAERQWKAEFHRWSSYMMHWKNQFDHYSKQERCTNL
Assay Method Text: Non-competitive inhibition of Electrophorus electricus acetylcholinesterase in presence of varying acetylthiocholine iodide substrate level preincubated for 20 mins followed by substrate addition measured every 1 min for 30 mins
Endpoint: pKi
One number for each entry, as −log10 of the molar value.

Some entries whose results are on file:
# Smiles Data, Target, Numeric Value
measured = [
    ("COc1cccc(NC(=N)NC(=N)N2CCN(C(=N)NC(=N)Nc3cccc(OC)c3)CC2)c1", "Acetylcholinesterase (Electrophorus electricus)", 4.34),
    ("COc1cc(NC(=N)NC(=N)N2CCN(C(=N)NC(=N)Nc3cc(OC)c(OC)c(OC)c3)CC2)cc(OC)c1OC", "Acetylcholinesterase (Electrophorus electricus)", 4.38),
    ("COc1ccccc1NC(=N)NC(=N)N1CCN(C(=N)NC(=N)Nc2ccccc2OC)CC1", "Acetylcholinesterase (Electrophorus electricus)", 4.86),
]

**Query** Query the reported pKi for Acetylcholinesterase (Electrophorus electricus); item: `N=C(NC(=N)N1CCN(C(=N)NC(=N)Nc2ccc(Br)cc2)CC1)Nc1ccc(Br)cc1`
**Result** 4.45
